Data provenance is patent US12331040B2.

- System: Hs738.st cells
- Assay Overview: MTT cell proliferation assay
- Assay type: cell-based
- Setup Conditions: 72-hour MTT
Test Readout: IC50 (nM)
Answers are plain numbers, in nM.

Data request: // lookup IC50 | system=Hs738.st cells | key= Nc1ccc(/C=C/C(=O)NCc2cc3cc(-c4ccc(C(=O)N5CCC(F)(F)CC5)cn4)cc(C(F)(F)F)c3o2)cn1 [Compound 585]
Data returned: 450

---

- Tested on: SNU-398 cells
- Assay Overview: MTT cell proliferation assay
- Format: cell-based
- Setup Conditions: Homo sapiens, 72-hour MTT
Test Readout: IC50 (µM)
Numbers only, in µM.

Data request: Field: IC50 (SNU-398 cells). Entry: Nc1ccc(/C=C/C(=O)NCc2cc3cc(-c4ccc(C(=O)N5CCC(F)(F)CC5)cn4)cc(C(F)(F)F)c3o2)cn1 [Compound 585]
Data returned: 4.42

---

- Tested on: MDA-MB-231 cells
- Assay Overview: MTT cell proliferation assay
- Assay type: cell-based
- Setup Conditions: Homo sapiens; MDA-MB-231 cells; 72-hour MTT; read-out: MDA-MB-231 MTT IC50
Test Readout: IC50 (nM)
Give bare numbers, in nM.

{"Molecule": "Nc1ccc(/C=C/C(=O)NCc2cc3cc(-c4ccc(C(=O)N5CCOCC5)cc4)cc(C(F)(F)F)c3o2)cn1 [Compound 510]", "Units Of Measure": "nM", "IC50": 1410}
{"Molecule": "Nc1ccc(/C=C/C(=O)NCc2cc3cc(-c4ccc(C(=O)N5CCC(F)(F)CC5)cn4)cc(C(F)(F)F)c3o2)cn1 [Compound 585]", "Units Of Measure": "nM", "IC50": 1120}

Now take the following molecule into account.
Data request: What does the record list as IC50 for Nc1ccc(/C=C/C(=O)NCc2cc3cc(-c4ccc(S(=O)(=O)N5CCOCC5)cc4)cc(Cl)c3o2)cn1 [Compound 504] ?
Data returned: 220

---

Please respond with reported pIC50 for every item in the list.
- Tested on: MDA-MB-231 cells
- Assay Overview: MTT cell proliferation assay
- Type: cell-based
- Setup Conditions: Homo sapiens; MDA-MB-231 cell line; read-out: MTT Assay IC50, MDA-MB-231
pIC50: −log10 of the molar value.

Worked examples follow.
{"Chemical Smiles": "Nc1ccc(/C=C/C(=O)NCc2cc3cc(-c4ccc(C(=O)N5CCOCC5)cc4)cc(C(F)(F)F)c3o2)cn1", "pIC50": "5.30 to 7.00"}
{"Chemical Smiles": "CC1(C)COCCN1C(=O)c1ccc(-c2cc(C(F)(F)F)c3oc(CNC(=O)/C=C/c4ccc(N)nc4)cc3c2)cc1", "pIC50": "5.30 to 7.00"}
{"Chemical Smiles": "Nc1ccc(/C=C/C(=O)NCc2cc3cc(-c4ccc(S(=O)(=O)N5CCOCC5)cc4)cc(Cl)c3o2)cn1", "pIC50": "5.30 to 7.00"}

Data request: Given the compound Nc1ccc(/C=C/C(=O)NCc2cc3cc(-c4ccc(C(=O)N5CCOCC5)cn4)cc(C(F)(F)F)c3o2)cn1 , what is its reported pIC50?
Data returned: 5.30 to 7.00

---

- System: MDA-MB-415 cells
- Assay Overview: MTT cell proliferation assay
- Assay type: cell-based
- Setup Conditions: Homo sapiens, 72-hour MTT
Test Readout: pIC50
Numbers only, as −log10 of the molar value.

Data request: Data request, read-out pIC50, for Nc1ccc(/C=C/C(=O)NCc2cc3cc(-c4ccc(C(=O)N5CCC(F)(F)CC5)cn4)cc(C(F)(F)F)c3o2)cn1
Data returned: 5.99
